targetOfAssay: Estrogen receptor (Homo sapiens, UniProt P03372, D538G)
Sequence (P03372 whole entry D538G): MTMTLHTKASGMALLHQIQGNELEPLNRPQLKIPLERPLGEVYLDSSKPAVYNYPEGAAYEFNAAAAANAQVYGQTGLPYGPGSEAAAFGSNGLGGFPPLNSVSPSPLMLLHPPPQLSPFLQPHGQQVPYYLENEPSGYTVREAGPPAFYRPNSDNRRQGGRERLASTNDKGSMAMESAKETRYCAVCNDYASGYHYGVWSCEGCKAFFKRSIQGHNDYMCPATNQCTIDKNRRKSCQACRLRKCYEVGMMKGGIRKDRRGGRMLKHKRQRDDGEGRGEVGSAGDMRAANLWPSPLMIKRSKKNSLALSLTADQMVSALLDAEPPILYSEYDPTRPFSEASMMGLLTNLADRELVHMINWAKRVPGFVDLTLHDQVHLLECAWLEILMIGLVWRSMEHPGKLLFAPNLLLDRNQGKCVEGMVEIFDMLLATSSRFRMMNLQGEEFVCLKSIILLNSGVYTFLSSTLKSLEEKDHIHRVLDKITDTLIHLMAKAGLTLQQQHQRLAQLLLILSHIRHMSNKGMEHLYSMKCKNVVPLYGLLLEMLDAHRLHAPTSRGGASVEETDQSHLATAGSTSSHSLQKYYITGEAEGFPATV
assayMethodText: Binding affinity to ERalpha D538G mutant (unknown origin) expressed in Escherichia coli preincubated for 15 mins followed by ligand addition and measured after 1 hr by fluorescent polarization assay
Values of IC50 strictly less than 40 nM map to Yes, and values of at least 40 nM map to No.

Cc1ncsc1-c1ccc([C@H](C)NC(=O)[C@@H]2C[C@@H](O)CN2C(=O)[C@@H](NC(=O)COCc2cn(CCOc3ccc(Cn4c(-c5ccc(O)cc5)c(C)c5cc(O)ccc54)cc3)nn2)C(C)(C)C)cc1: No

Prompt line: hey, is IC50 for CN(Cc1cccc(O)c1Cl)C(C1CCCC1)C(F)(F)F (stereo not given) lower than 40 nM or not?
Response line: No

Prompt line: hey, is IC50 for Cc1ncsc1-c1ccc([C@H](C)NC(=O)[C@@H]2C[C@@H](O)CN2C(=O)[C@@H](NC(=O)COCCOCc2cn(CCOc3ccc(Cn4c(-c5ccc(O)cc5)c(C)c5cc(O)ccc54)cc3)nn2)C(C)(C)C)cc1 lower than 40 nM or not?
Response line: Yes

Prompt line: hey, is IC50 for Cc1c(-c2ccc(O)cc2)n(Cc2ccc(OCCn3cc(COCCOc4cccc5c4C(=O)N(C4CCC(=O)NC4=O)C5=O)nn3)cc2)c2ccc(O)cc12 (stereo not given) lower than 40 nM or not?
Response line: Yes
